System: Yap1 mRNA
Test: Dose-dependent inhibition of human Yap1 in A-431 cells (Example 8, 10,000 cells per well, RTS4814)
Assay type: cell-based
Settings: A-431 cells, free uptake, approximately 48 hours, RTS4814; linear regression on log/linear plot
Strand notation (5' to 3'): a small letter for the sugar, then the base; units joined by * are phosphorothioate-linked, units joined directly phosphodiester-linked; [ ] holds rarer units or linkages, { } end groups; capitals alone tell only the bases. k = constrained ethyl (cEt); [5mC] = 5-methylcytosine; d = 2'-deoxy (DNA)

SUBSTANCE	IC50
1076448 (k[5mC]*kT*kT*dA*dT*dA*dA*dT*dG*d[5mC]*dA*dA*dT*k[5mC]*k[5mC]*kT; antisense) [compound 1076448]	< 20 nM
1075757 (k[5mC]*kT*kT*dA*dA*dT*dA*d[5mC]*dA*dT*dT*dA*dT*kT*k[5mC]*k[5mC]; antisense) [compound 1075757]	< 20 nM
1076077 (kG*kG*kA*dT*dT*dA*dA*dA*dG*dT*dT*dT*dT*k[5mC]*kA*k[5mC]; antisense) [compound 1076077]	< 20 nM
1075401 (antisense k[5mC]*kG*kA*dT*dT*dA*dA*dA*dA*d[5mC]*dA*d[5mC]*dT*kG*kG*kT) [compound 1075401]	40 nM
1074753 (kT*kA*k[5mC]*dA*dT*dT*dA*dG*dG*dA*dA*d[5mC]*dA*kA*kG*kG; antisense) [compound 1074753]	< 20 nM
1076015 (kA*kT*kT*dT*dA*dG*dT*dT*dG*dG*dT*dT*dG*kT*kT*kA; antisense) [compound 1076015]	100 nM
1076067 (kG*k[5mC]*kA*dT*dA*dT*dA*dA*dG*dA*dT*dG*dT*kT*kT*kG; antisense) [compound 1076067]	< 20 nM
1076049 (kA*kG*kA*dT*dT*dA*dA*dA*dG*dG*d[5mC]*dT*dG*kG*kA*kA; antisense) [compound 1076049]	< 20 nM
1074450 (kA*k[5mC]*kT*dA*dA*dT*dG*dA*dT*dA*dG*d[5mC]*dA*k[5mC]*kT*kA; antisense) [compound 1074450]	< 20 nM
1075089 (k[5mC]*kA*kT*dT*dT*dA*dT*dA*dG*dT*d[5mC]*dA*dG*kG*kT*kT; antisense) [compound 1075089]	< 20 nM
1074536 (kA*kG*kT*dA*dA*dT*dA*dG*d[5mC]*dT*d[5mC]*dT*dT*kT*k[5mC]*kT; antisense) [compound 1074536]	40 nM
1075081 (antisense kG*kA*kT*dT*dA*d[5mC]*dA*dA*dA*dG*dA*d[5mC]*dA*kG*k[5mC]*k[5mC]) [compound 1075081]	100 nM
1075689 (k[5mC]*kA*kA*d[5mC]*dT*dA*dT*dA*d[5mC]*dA*dA*dG*dG*k[5mC]*kA*kA; antisense) [compound 1075689]	200 nM
1074817 (k[5mC]*kT*kG*dA*dA*dT*dA*dT*dT*dG*d[5mC]*d[5mC]*dA*k[5mC]*k[5mC]*k[5mC]; antisense) [compound 1074817]	< 20 nM
1076526 (kG*kT*kA*dG*dA*dA*dA*dG*dA*dT*dG*dG*d[5mC]*kT*k[5mC]*kA; antisense) [compound 1076526]	< 20 nM
1074444 (kA*k[5mC]*kA*dT*dT*dT*dT*dT*dG*dG*d[5mC]*dT*dT*kG*kT*k[5mC]; antisense) [compound 1074444]	< 20 nM
1075112 (kA*kT*kA*dT*dA*dG*dG*dA*dA*dT*dA*dT*dG*kG*kG*kT; antisense) [compound 1075112]	100 nM
1074535 (kG*kT*kA*dA*dT*dA*dG*d[5mC]*dT*d[5mC]*dT*dT*dT*k[5mC]*kT*kA; antisense) [compound 1074535]	< 20 nM
1074451 (kG*kA*k[5mC]*dT*dA*dA*dT*dG*dA*dT*dA*dG*d[5mC]*kA*k[5mC]*kT; antisense) [compound 1074451]	40 nM
1075137 (kG*kA*kT*dT*dA*dA*dA*dT*dA*d[5mC]*dT*dG*dA*k[5mC]*k[5mC]*kA; antisense) [compound 1075137]	100 nM
1074795 (k[5mC]*k[5mC]*kA*dA*dA*dT*d[5mC]*dA*dA*dT*dG*dT*dG*k[5mC]*kT*k[5mC]; antisense) [compound 1074795]	< 20 nM
1074801 (kA*k[5mC]*kA*dA*dA*dT*dA*dG*dT*dG*d[5mC]*dT*dT*kT*kG*kG; antisense) [compound 1074801]	100 nM
1075824 (kG*kT*kA*dT*dT*dA*dG*dA*dG*dG*dT*dT*d[5mC]*k[5mC]*kA*kG; antisense) [compound 1075824]	< 20 nM
1074560 (DNA k[5mC]*k[5mC]*kA*dA*dT*d[5mC]*dG*dA*dG*dA*d[5mC]*dT*dT*kA*kA*kA) [compound 1074560]	< 20 nM
1074798 (kG*k[5mC]*kT*dT*dT*dG*dG*dA*dA*dG*dA*dT*d[5mC]*kT*kG*kA) [compound 1074798]	< 20 nM
